B1: EPB41L3 (parent)
chain: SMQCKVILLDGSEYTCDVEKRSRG

- Variants of: B1
- ASSAY NAME: protein stability index of a GFP-peptide fusion (GPS, HEK-293T) (PSI 1-6); higher = more stable;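 further: lentivirally expressed fusions sorted by FACS into six bins by GFP to DsRed ratio, PSI derived from sequencing read proportions per bin multiplied by bin number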
- APPLIED CONDITIONS: c terminus: a fixed tail appended
// classify(record): look up protein stability index in ranges A: < 2; B: ≥ 2 and < 3; C: ≥ 3

INPUT: Band for "T15L" ?
OUTPUT: A

INPUT: Band for "V6A" ?
OUTPUT: B

INPUT: Band for "K20W" ?
OUTPUT: A

INPUT: Band for "E13D" ?
OUTPUT: B

INPUT: Band for "E19W" ?
OUTPUT: B

INPUT: Band for "Y14I" ?
OUTPUT: B

INPUT: Band for "G11T" ?
OUTPUT: B

INPUT: Band for "R21C" ?
OUTPUT: B

INPUT: Band for "C16P" ?
OUTPUT: B

INPUT: Band for "D17L" ?
OUTPUT: C

INPUT: Band for "E13I" ?
OUTPUT: A

INPUT: Band for "R21I" ?
OUTPUT: A

INPUT: Band for "L9V" ?
OUTPUT: C

INPUT: Band for "T15M" ?
OUTPUT: B

INPUT: Band for "D17G" ?
OUTPUT: B

INPUT: Band for "T15V" ?
OUTPUT: B

INPUT: Band for "C16V" ?
OUTPUT: C

INPUT: Band for "Q3L" ?
OUTPUT: A

INPUT: Band for "V6P" ?
OUTPUT: C

INPUT: Band for "C4W" ?
OUTPUT: B

INPUT: Band for "R23T" ?
OUTPUT: C

INPUT: Band for "K20D" ?
OUTPUT: C

INPUT: Band for "I7Y" ?
OUTPUT: B

INPUT: Band for "E19S" ?
OUTPUT: B

INPUT: Band for "E13N" ?
OUTPUT: A

INPUT: Band for "I7L" ?
OUTPUT: B

INPUT: Band for "I7Q" ?
OUTPUT: C

INPUT: Band for "M2N" ?
OUTPUT: C

Recorded values, source the supplement of paper PMC10567573.
